# assayContext: in ethyl acetate, 293.07 K

>  <mol>
Cn1[nH]c(=O)c(=O)[nH]c1=S

>  <solubility (mole fraction)>
0.00574

$$$$

----------
# assayContext: in isopropanol, 328.13 K
experimentalEndpoint: solubility (mole fraction)

>  <mol>
Cn1[nH]c(=O)c(=O)[nH]c1=S

>  <valueObserved>
0.0164

$$$$

----------
# assayContext: in n-propanol, 333.07 K

>  <mol>
Cn1[nH]c(=O)c(=O)[nH]c1=S

>  <solubility (mole fraction)>
0.0223

$$$$

----------
# assayContext: in ethanol, 318.47 K

>  <mol>
Cn1[nH]c(=O)c(=O)[nH]c1=S

>  <solubility (mole fraction)>
0.0205

$$$$

----------
# assayContext: in n-propanol, 303.23 K

>  <mol>
Cn1[nH]c(=O)c(=O)[nH]c1=S

>  <solubility (mole fraction)>
0.0108

$$$$

----------
# assayContext: in water, 298.15 K

>  <mol>
Cn1[nH]c(=O)c(=O)[nH]c1=S

>  <solubility (mole fraction)>
0.00158

$$$$

----------
# assayContext: in water, 312.93 K

>  <mol>
Cn1[nH]c(=O)c(=O)[nH]c1=S

>  <solubility (mole fraction)>
0.00263

$$$$

----------
# assayContext: in ethanol, 333.53 K

>  <mol>
Cn1[nH]c(=O)c(=O)[nH]c1=S

>  <solubility (mole fraction)>
0.0278

$$$$

----------
# assayContext: in isopropanol, 298.21 K

>  <mol>
Cn1[nH]c(=O)c(=O)[nH]c1=S

>  <solubility (mole fraction)>
0.00663

$$$$

----------
# assayContext: in water, 322.85 K
experimentalEndpoint: solubility (mole fraction)

>  <mol>
Cn1[nH]c(=O)c(=O)[nH]c1=S

>  <valueObserved>
0.00366

$$$$

----------
# assayContext: in acetonitrile, 328.13 K
experimentalEndpoint: solubility (mole fraction)

>  <mol>
Cn1[nH]c(=O)c(=O)[nH]c1=S

>  <experimentalEndpoint>
solubility (mole fraction)

>  <valueObserved>
0.00463

$$$$

----------
# assayContext: in acetonitrile, 338.17 K

>  <mol>
Cn1[nH]c(=O)c(=O)[nH]c1=S

>  <solubility (mole fraction)>
0.00585

$$$$

----------
# assayContext: in ethyl acetate, 298.49 K

>  <mol>
Cn1[nH]c(=O)c(=O)[nH]c1=S

>  <solubility (mole fraction)>
0.00617

$$$$

----------
# assayContext: in ethyl acetate, 333.53 K
experimentalEndpoint: solubility (mole fraction)

>  <mol>
Cn1[nH]c(=O)c(=O)[nH]c1=S

>  <valueObserved>
0.00985

$$$$

----------
# assayContext: in ethanol, 328.23 K

>  <mol>
Cn1[nH]c(=O)c(=O)[nH]c1=S

>  <solubility (mole fraction)>
0.0255

$$$$

----------
# assayContext: in acetonitrile, 313.07 K
experimentalEndpoint: solubility (mole fraction)

>  <mol>
Cn1[nH]c(=O)c(=O)[nH]c1=S

>  <experimentalEndpoint>
solubility (mole fraction)

>  <valueObserved>
0.00333

$$$$

----------
# assayContext: in water, 337.35 K

>  <mol>
Cn1[nH]c(=O)c(=O)[nH]c1=S

>  <solubility (mole fraction)>
0.00623

$$$$

----------
# assayContext: in n-butanol, 333.39 K

>  <mol>
Cn1[nH]c(=O)c(=O)[nH]c1=S

>  <solubility (mole fraction)>
0.0224

$$$$

----------
# assayContext: in n-butanol, 338.07 K
experimentalEndpoint: solubility (mole fraction)

>  <mol>
Cn1[nH]c(=O)c(=O)[nH]c1=S

>  <experimentalEndpoint>
solubility (mole fraction)

>  <valueObserved>
0.0255

$$$$

----------
# assayContext: in n-butanol, 318.05 K
experimentalEndpoint: solubility (mole fraction)

>  <mol>
Cn1[nH]c(=O)c(=O)[nH]c1=S

>  <valueObserved>
0.0159

$$$$

----------
# assayContext: in n-propanol, 298.33 K
experimentalEndpoint: solubility (mole fraction)

>  <mol>
Cn1[nH]c(=O)c(=O)[nH]c1=S

>  <experimentalEndpoint>
solubility (mole fraction)

>  <valueObserved>
0.00959

$$$$

----------
# assayContext: in acetone, 293.25 K
experimentalEndpoint: solubility (mole fraction)

>  <mol>
Cn1[nH]c(=O)c(=O)[nH]c1=S

>  <experimentalEndpoint>
solubility (mole fraction)

>  <valueObserved>
0.015

$$$$

----------
# assayContext: in acetonitrile, 293.21 K
experimentalEndpoint: solubility (mole fraction)

>  <mol>
Cn1[nH]c(=O)c(=O)[nH]c1=S

>  <valueObserved>
0.00221

$$$$

----------
# assayContext: in n-butanol, 308.11 K
experimentalEndpoint: solubility (mole fraction)

>  <mol>
Cn1[nH]c(=O)c(=O)[nH]c1=S

>  <experimentalEndpoint>
solubility (mole fraction)

>  <valueObserved>
0.0124

$$$$
